System: Escherichia coli
Measurement description: Antibacterial activity against Escherichia coli DH5alpha at 50 ug per disc by Kirby-Bauer disc diffusion assay
Assay type: functional
Run conditions: DH5[alpha], read-out: DIZ
Parameter measured: zone of inhibition at 50 µg/disc (mm)
Return type: number; implicit unit mm.

Log: Escherichia coli, compound CCC(=O)N1CCN(c2cc3c(cc2F)c(=O)c(C(=O)O)cn3C2CC2)CC1 , zone of inhibition at 50 µg/disc = 57

Assay Escherichia coli, sample CCCC(=O)N1CCN(c2cc3c(cc2F)c(=O)c(C(=O)O)cn3C2CC2)CC1 , zone of inhibition at 50 µg/disc read: 48

The observed zone of inhibition at 50 µg/disc for CCC(C)(C)C(=O)N1CCN(c2cc3c(cc2F)c(=O)c(C(=O)O)cn3C2CC2)CC1 when tested with Escherichia coli stands at 38

Item CCCCC(CC)C(=O)N1CCN(c2cc3c(cc2F)c(=O)c(C(=O)O)cn3C2CC2)CC1 (stereo not given) ; assay system Escherichia coli; zone of inhibition at 50 µg/disc reported as 6

Escherichia coli data for CCCCCCCCC(=O)N1CCN(c2cc3c(cc2F)c(=O)c(C(=O)O)cn3C2CC2)CC1 ; its zone of inhibition at 50 µg/disc: 30

Escherichia coli assay, compound O=C(O)c1cn(C2CC2)c2cc(N3CCN(C(=O)c4ccccc4)CC3)c(F)cc2c1=O , recorded zone of inhibition at 50 µg/disc = 6

Entry CCC(CC)C(=O)N1CCN(c2cc3c(cc2F)c(=O)c(C(=O)O)cn3C2CC2)CC1 ; assay system Escherichia coli; zone of inhibition at 50 µg/disc recorded at 39

Escherichia coli data for CCCCCCCC(=O)N1CCN(c2cc3c(cc2F)c(=O)c(C(=O)O)cn3C2CC2)CC1 ; its zone of inhibition at 50 µg/disc: 6

# lookup: CCCCCC(=O)N1CCN(c2cc3c(cc2F)c(=O)c(C(=O)O)cn3C2CC2)CC1 on Escherichia coli, zone of inhibition at 50 µg/disc = 30

Given the compound CC(C)(C)C(=O)N1CCN(c2cc3c(cc2F)c(=O)c(C(=O)O)cn3C2CC2)CC1 and test system Escherichia coli, the measured zone of inhibition at 50 µg/disc is 51

====

System: Escherichia coli
Measurement description: Antibacterial activity against Escherichia coli DH5alpha at 50 ug per disc by Kirby-Bauer disc diffusion assay
Type: functional
Run conditions: DH5[alpha], read-out: DIZ
MET means recorded zone of inhibition at 50 µg/disc is 40 mm or above; NOT MET means it is below 40 mm.

Query: Threshold query (zone of inhibition at 50 µg/disc >= 40 mm) on CC(C)CC(=O)N1CCN(c2cc3c(cc2F)c(=O)c(C(=O)O)cn3C2CC2)CC1
Reply: NOT MET

Query: Has CCCCCCCCCC(=O)N1CCN(c2cc3c(cc2F)c(=O)c(C(=O)O)cn3C2CC2)CC1 a recorded zone of inhibition at 50 µg/disc greater than or equal to 40 mm?
Reply: NOT MET

Query: Textbook exercise: given the entry O=C(O)c1cn(C2CC2)c2cc(N3CCNCC3)c(F)cc2c1=O , state whether its zone of inhibition at 50 µg/disc is greater than or equal to 40 mm.
Reply: MET

Query: Decide: is the reported value of zone of inhibition at 50 µg/disc for CCCC(C)C(=O)N1CCN(c2cc3c(cc2F)c(=O)c(C(=O)O)cn3C2CC2)CC1 (centres undefined) equal to or greater than 40 mm?
Reply: NOT MET

Query: Decide: is the reported value of zone of inhibition at 50 µg/disc for CCCCC(=O)N1CCN(c2cc3c(cc2F)c(=O)c(C(=O)O)cn3C2CC2)CC1 equal to or greater than 40 mm?
Reply: MET

Query: # bool: zone of inhibition at 50 µg/disc of CCCC(CCC)C(=O)N1CCN(c2cc3c(cc2F)c(=O)c(C(=O)O)cn3C2CC2)CC1 >= 40 mm
Reply: NOT MET

Query: Record CC(CC(=O)N1CCN(c2cc3c(cc2F)c(=O)c(C(=O)O)cn3C2CC2)CC1)CC(C)(C)C (centres undefined) ; criterion: zone of inhibition at 50 µg/disc no lower than 40 mm. Met?
Reply: NOT MET

Query: Decide: is the reported value of zone of inhibition at 50 µg/disc for CC(=O)N1CCN(c2cc3c(cc2F)c(=O)c(C(=O)O)cn3C2CC2)CC1 equal to or greater than 40 mm?
Reply: MET

Query: Test whether the molecule CCCCCCC(=O)N1CCN(c2cc3c(cc2F)c(=O)c(C(=O)O)cn3C2CC2)CC1 records zone of inhibition at 50 µg/disc of 40 mm or higher.
Reply: MET

====

Tested on: Bartonella vinsonii
Measurement description: Antibacterial activity against Bartonella vinsonii ATCC VR152 at 20 ug per disc after 7 days by Kirby-Bauer disc diffusion assay
Type: functional
Run conditions: ATCC VR152, 168 h, read-out: DIZ
Please go through the items and note down their zone of inhibition at 20 µg/disc.
Kindly answer with a numeric value in mm, unit omitted.

Record CCCCCC(=O)N1CCN(c2cc3c(cc2F)c(=O)c(C(=O)O)cn3C2CC2)CC1 . Reported zone of inhibition at 20 µg/disc: 21

Value of zone of inhibition at 20 µg/disc reported for the compound CC(C)CC(=O)N1CCN(c2cc3c(cc2F)c(=O)c(C(=O)O)cn3C2CC2)CC1 is 40

Lab note: CC(C)(C)C(=O)N1CCN(c2cc3c(cc2F)c(=O)c(C(=O)O)cn3C2CC2)CC1 gave zone of inhibition at 20 µg/disc of 36

The reported zone of inhibition at 20 µg/disc of the compound O=C(O)c1cn(C2CC2)c2cc(N3CCNCC3)c(F)cc2c1=O [CIPROFLOXACIN] was 58

Consider CCCCC(=O)N1CCN(c2cc3c(cc2F)c(=O)c(C(=O)O)cn3C2CC2)CC1 . Its measured zone of inhibition at 20 µg/disc is 57

====

Test system: Bartonella vinsonii
Measurement description: Antibacterial activity against Bartonella vinsonii ATCC VR152 at 20 ug per disc after 7 days by Kirby-Bauer disc diffusion assay
Format: functional
Run conditions: ATCC VR152, 168 h, read-out: DIZ
Parameter measured: zone of inhibition at 20 µg/disc

The compound identified as CCCC(=O)N1CCN(c2cc3c(cc2F)c(=O)c(C(=O)O)cn3C2CC2)CC1 registered its zone of inhibition at 20 µg/disc at 44 mm

// field: zone of inhibition at 20 µg/disc; key: CCC(=O)N1CCN(c2cc3c(cc2F)c(=O)c(C(=O)O)cn3C2CC2)CC1 ; value = 60 mm

Record CCCC(CCC)C(=O)N1CCN(c2cc3c(cc2F)c(=O)c(C(=O)O)cn3C2CC2)CC1 , field zone of inhibition at 20 µg/disc: 6 mm

Entry CCCCCCCCCC(=O)N1CCN(c2cc3c(cc2F)c(=O)c(C(=O)O)cn3C2CC2)CC1 — recorded zone of inhibition at 20 µg/disc = 9 mm

Measured zone of inhibition at 20 µg/disc, CCCC(C)C(=O)N1CCN(c2cc3c(cc2F)c(=O)c(C(=O)O)cn3C2CC2)CC1 (stereo not given) : 30 mm

====

Measurement description: Antibacterial activity against Bartonella henselae ATCC 49882 at 20 ug per disc after 7 days by Kirby-Bauer disc diffusion assay
Assay type: functional, Bartonella henselae str. Houston-1
Run conditions: ATCC 49882, 168 h, read-out: DIZ
Would you kindly list zone of inhibition at 20 µg/disc for each of these compounds?
Hey, just the number and the unit after it is fine.

Form field zone of inhibition at 20 µg/disc, entry CC(C)CC(=O)N1CCN(c2cc3c(cc2F)c(=O)c(C(=O)O)cn3C2CC2)CC1 : 62 mm

Recorded zone of inhibition at 20 µg/disc (compound CCCCCCC(=O)N1CCN(c2cc3c(cc2F)c(=O)c(C(=O)O)cn3C2CC2)CC1 ): 28 mm

Entry CCCC(CCC)C(=O)N1CCN(c2cc3c(cc2F)c(=O)c(C(=O)O)cn3C2CC2)CC1 , zone of inhibition at 20 µg/disc reported as 14 mm

In plain terms, CCC(=O)N1CCN(c2cc3c(cc2F)c(=O)c(C(=O)O)cn3C2CC2)CC1 has a documented zone of inhibition at 20 µg/disc of 56 mm

zone of inhibition at 20 µg/disc reported for this compound CC(CC(=O)N1CCN(c2cc3c(cc2F)c(=O)c(C(=O)O)cn3C2CC2)CC1)CC(C)(C)C (centres undefined) : 15 mm

Data point: CCCC(C)C(=O)N1CCN(c2cc3c(cc2F)c(=O)c(C(=O)O)cn3C2CC2)CC1 (centres undefined) ; zone of inhibition at 20 µg/disc = 37 mm

// recorded zone of inhibition at 20 µg/disc for CCCC(=O)N1CCN(c2cc3c(cc2F)c(=O)c(C(=O)O)cn3C2CC2)CC1 : 34 mm

CCCCC(CC)C(=O)N1CCN(c2cc3c(cc2F)c(=O)c(C(=O)O)cn3C2CC2)CC1 (centres undefined) yielded zone of inhibition at 20 µg/disc of 12 mm

Memo: O=C(O)c1cn(C2CC2)c2cc(N3CCNCC3)c(F)cc2c1=O , reported zone of inhibition at 20 µg/disc: 56 mm

The compound O=C(O)c1cn(C2CC2)c2cc(N3CCN(C(=O)c4ccccc4)CC3)c(F)cc2c1=O showed zone of inhibition at 20 µg/disc equal to 21 mm

Reported zone of inhibition at 20 µg/disc of CCCCC(=O)N1CCN(c2cc3c(cc2F)c(=O)c(C(=O)O)cn3C2CC2)CC1 : 38 mm

Given item CC(C)(C)C(=O)N1CCN(c2cc3c(cc2F)c(=O)c(C(=O)O)cn3C2CC2)CC1 , the value recorded as its zone of inhibition at 20 µg/disc is 40 mm

So, CC(=O)N1CCN(c2cc3c(cc2F)c(=O)c(C(=O)O)cn3C2CC2)CC1 ? Its zone of inhibition at 20 µg/disc was 52 mm

Reported zone of inhibition at 20 µg/disc for CCCCCCCCCC(=O)N1CCN(c2cc3c(cc2F)c(=O)c(C(=O)O)cn3C2CC2)CC1 was 10 mm

zone of inhibition at 20 µg/disc recorded for this compound, CCCCCCCCC(=O)N1CCN(c2cc3c(cc2F)c(=O)c(C(=O)O)cn3C2CC2)CC1 , is 6 mm

Data point: CCCCCCCC(=O)N1CCN(c2cc3c(cc2F)c(=O)c(C(=O)O)cn3C2CC2)CC1 ; zone of inhibition at 20 µg/disc = 16 mm

# zone of inhibition at 20 µg/disc (compound: CCCCCC(=O)N1CCN(c2cc3c(cc2F)c(=O)c(C(=O)O)cn3C2CC2)CC1 ) is 31 mm

get_value(item= CCC(C)(C)C(=O)N1CCN(c2cc3c(cc2F)c(=O)c(C(=O)O)cn3C2CC2)CC1 , readout=zone of inhibition at 20 µg/disc) returns 41 mm

Looking up CCC(CC)C(=O)N1CCN(c2cc3c(cc2F)c(=O)c(C(=O)O)cn3C2CC2)CC1 , I found its zone of inhibition at 20 µg/disc recorded as 33 mm
